Target: UniProt:Q15858
Sequence (Q15858 whole entry, looked up): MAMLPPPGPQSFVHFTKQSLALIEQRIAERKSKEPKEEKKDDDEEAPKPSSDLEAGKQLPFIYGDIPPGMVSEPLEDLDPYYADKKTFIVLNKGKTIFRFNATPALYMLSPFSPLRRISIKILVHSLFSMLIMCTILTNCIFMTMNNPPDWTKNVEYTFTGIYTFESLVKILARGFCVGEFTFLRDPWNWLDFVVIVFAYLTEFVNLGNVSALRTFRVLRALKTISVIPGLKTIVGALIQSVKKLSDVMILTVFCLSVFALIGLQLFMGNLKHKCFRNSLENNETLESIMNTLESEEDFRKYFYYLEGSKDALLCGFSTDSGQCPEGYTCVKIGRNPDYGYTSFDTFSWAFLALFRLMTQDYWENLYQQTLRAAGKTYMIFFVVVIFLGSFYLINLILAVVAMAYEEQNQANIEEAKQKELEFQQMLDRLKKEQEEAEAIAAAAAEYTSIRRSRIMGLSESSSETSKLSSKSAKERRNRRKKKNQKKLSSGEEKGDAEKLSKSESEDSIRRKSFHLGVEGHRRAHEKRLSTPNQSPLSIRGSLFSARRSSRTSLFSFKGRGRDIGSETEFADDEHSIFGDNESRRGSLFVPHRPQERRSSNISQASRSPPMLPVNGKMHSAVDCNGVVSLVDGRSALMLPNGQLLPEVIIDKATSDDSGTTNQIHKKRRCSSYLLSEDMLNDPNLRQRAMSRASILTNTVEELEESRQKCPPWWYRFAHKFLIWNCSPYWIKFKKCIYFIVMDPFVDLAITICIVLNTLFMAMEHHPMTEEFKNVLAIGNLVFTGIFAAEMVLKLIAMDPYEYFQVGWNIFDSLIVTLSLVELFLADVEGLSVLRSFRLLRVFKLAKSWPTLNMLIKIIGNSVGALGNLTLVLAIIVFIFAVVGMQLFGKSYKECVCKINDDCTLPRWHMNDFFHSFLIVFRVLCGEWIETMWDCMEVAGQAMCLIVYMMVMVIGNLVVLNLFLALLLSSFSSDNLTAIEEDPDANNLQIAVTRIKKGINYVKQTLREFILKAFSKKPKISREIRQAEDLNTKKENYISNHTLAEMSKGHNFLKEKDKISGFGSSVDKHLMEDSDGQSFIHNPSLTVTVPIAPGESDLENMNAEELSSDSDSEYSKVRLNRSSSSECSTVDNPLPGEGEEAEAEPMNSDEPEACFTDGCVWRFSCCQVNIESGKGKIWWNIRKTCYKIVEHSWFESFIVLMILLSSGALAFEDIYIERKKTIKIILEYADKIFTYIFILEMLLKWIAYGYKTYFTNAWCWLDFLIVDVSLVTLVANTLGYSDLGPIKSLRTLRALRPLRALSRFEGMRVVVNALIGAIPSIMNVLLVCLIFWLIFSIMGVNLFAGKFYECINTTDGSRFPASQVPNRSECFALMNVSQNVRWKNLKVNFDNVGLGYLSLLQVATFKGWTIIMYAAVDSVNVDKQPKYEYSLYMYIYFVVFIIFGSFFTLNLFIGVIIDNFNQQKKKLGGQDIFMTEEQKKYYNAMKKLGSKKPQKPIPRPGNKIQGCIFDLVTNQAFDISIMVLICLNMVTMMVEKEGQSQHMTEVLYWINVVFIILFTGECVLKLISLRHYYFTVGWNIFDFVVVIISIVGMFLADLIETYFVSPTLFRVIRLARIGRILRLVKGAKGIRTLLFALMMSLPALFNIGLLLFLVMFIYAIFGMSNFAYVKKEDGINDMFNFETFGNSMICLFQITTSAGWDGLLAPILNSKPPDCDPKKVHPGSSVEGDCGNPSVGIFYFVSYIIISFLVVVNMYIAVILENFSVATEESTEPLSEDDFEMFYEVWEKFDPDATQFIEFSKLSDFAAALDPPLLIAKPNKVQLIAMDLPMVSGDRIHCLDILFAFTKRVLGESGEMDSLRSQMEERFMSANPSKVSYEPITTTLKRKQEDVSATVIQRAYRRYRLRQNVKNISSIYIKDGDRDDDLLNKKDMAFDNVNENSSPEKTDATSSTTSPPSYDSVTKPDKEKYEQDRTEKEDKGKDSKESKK
Sequence (Q07699 whole entry partner, looked up): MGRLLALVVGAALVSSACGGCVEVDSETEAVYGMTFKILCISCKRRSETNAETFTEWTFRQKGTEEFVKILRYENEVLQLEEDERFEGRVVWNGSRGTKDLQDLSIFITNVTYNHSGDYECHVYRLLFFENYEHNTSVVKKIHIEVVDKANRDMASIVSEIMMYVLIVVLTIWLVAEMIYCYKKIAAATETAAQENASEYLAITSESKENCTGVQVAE
Assay: Competitive binding of tritiated compound to membranes from cells expressing hNav1.7 and the β1 subunit
Settings: 100 pM [3H]compound, 18 h, room temperature; read-out: NaV1.7 395 Membrane Binding IC50
OBSERVED PROPERTY: IC50 (nM)

# example entries with known answers
COc1ncccc1-c1cc(C(=O)NS(=O)(=O)N2CCC2)ccc1Oc1ccc(OC(F)(F)F)c(Cl)c1 : 52
CNS(=O)(=O)NC(=O)c1cc(Cl)c(Oc2ccc(Cl)c(C(F)(F)F)c2)cc1F : 109
CCCCN(CCCC)S(=O)(=O)NC(=O)c1cc(Cl)c(Oc2cnc(OCC(C)C)c(Cl)c2)cc1F : 3640
CNS(=O)(=O)NC(=O)c1cc(Cl)c(Oc2cnc(Cl)c(Cl)c2)cc1F : 628
CN(C)S(=O)(=O)NC(=O)c1cc(Cl)c(COc2cnc(OCC(F)(F)C(F)F)c(Cl)c2)cc1F [Preparation 76] : 220
CC(C)COc1ncc(Oc2cc(F)c(C(=O)NS(N)(=O)=O)cc2C#N)cc1Cl : 290
NS(=O)(=O)NC(=O)c1cc(Cl)c(Oc2ccc3ccccc3c2)cc1F : 138
CN(C)S(=O)(=O)NC(=O)c1cc(Cl)c(Oc2cnc(Cl)c(Cl)c2)cc1F : 665

A: NS(=O)(=O)NC(=O)c1cc(Cl)c(Oc2cnc(OCC(F)(F)C(F)F)c(Cl)c2)cc1F
B: CC(C)COc1ncc(Oc2cc(F)c(C(=O)NS(=O)(=O)NC(=O)OC(C)(C)C)cc2Cl)cc1Cl
Please tell me which of the two, A or B , has the higher reported IC50 value. Please reply using the label of the selected record.
B
(B: 905 nM, A: 171 nM)

a: CC(C)Oc1ncc(OCc2cc(F)c(C(=O)NS(=O)(=O)N3CCC3)cc2Cl)cc1Cl
b: CN(C)S(=O)(=O)NC(=O)c1cc(Cl)c(Oc2ccc(OC(F)(F)F)c(Cl)c2)cc1F
Please tell me which of the two, a or b , has the higher reported IC50 value. Please reply using the label of the selected record.
b

A: CNS(=O)(=O)NC(=O)c1cc(Cl)c(COc2ccc(OC(F)(F)F)c(Cl)c2)cc1F
B: CN(C)S(=O)(=O)NC(=O)c1cc(Cl)c(Oc2ccc(F)c(F)c2)cc1F
Compare A and B and name the one whose reported IC50 is smaller. Please reply using the label of the selected record.
A
(A: 43 nM, B: 3470 nM)

a: NS(=O)(=O)NC(=O)c1cc(Cl)c(Oc2cnc(Cl)c(Cl)c2)cc1F
b: CC(C)COc1ncc(Oc2cc(F)c(C(=O)NS(=O)(=O)N(C)C(C)C)cc2Cl)cc1Cl
Please tell me which of the two, a or b , has the higher reported IC50 value. Please reply using the label of the selected record.
a
(a: 4680 nM, b: 123 nM)
